Just for reference, patent US20040186273A1 is where these values come from.

# subjectOfTest: radiolabelled octapeptide repeat peptide *acetyl…amide
Listing: % unbound [14C] of selected binders
Please state the figure in %; there is no need to write the unit.

In: Look up % unbound [14C]: WEFYWF (modifications not checked) [peptide 86, WEFYWF, on Toyopearl resin, free amino terminal]
Out: 76

In: Then YFIWWE (modifications not checked) [peptide 91, YFIWWE, on Toyopearl resin, free amino terminal] ?
Out: 58

In: Then LLIWIP (modifications not checked) [peptide 84, LLIWIP, on Toyopearl resin, free amino terminal] ?
Out: 89

In: Then IFFWIK (modifications not checked) [peptide 112, IFFWIK, on Toyopearl resin, free amino terminal] ?
Out: 77

In: Then TGIPII (modifications not checked) [peptide 118, TGIPII, on Toyopearl resin, free amino terminal] ?
Out: 88

In: Then LLLVIA (modifications not checked) [peptide 94, LLLVIA, on Toyopearl resin, free amino terminal] ?
Out: 83

In: Then RWIISL (modifications not checked) [peptide 113, RWIISL, on Toyopearl resin, free amino terminal] ?
Out: 89
